Biological target: Muscarinic acetylcholine receptor M2 (Rattus norvegicus)
Sequence (P10980 whole entry): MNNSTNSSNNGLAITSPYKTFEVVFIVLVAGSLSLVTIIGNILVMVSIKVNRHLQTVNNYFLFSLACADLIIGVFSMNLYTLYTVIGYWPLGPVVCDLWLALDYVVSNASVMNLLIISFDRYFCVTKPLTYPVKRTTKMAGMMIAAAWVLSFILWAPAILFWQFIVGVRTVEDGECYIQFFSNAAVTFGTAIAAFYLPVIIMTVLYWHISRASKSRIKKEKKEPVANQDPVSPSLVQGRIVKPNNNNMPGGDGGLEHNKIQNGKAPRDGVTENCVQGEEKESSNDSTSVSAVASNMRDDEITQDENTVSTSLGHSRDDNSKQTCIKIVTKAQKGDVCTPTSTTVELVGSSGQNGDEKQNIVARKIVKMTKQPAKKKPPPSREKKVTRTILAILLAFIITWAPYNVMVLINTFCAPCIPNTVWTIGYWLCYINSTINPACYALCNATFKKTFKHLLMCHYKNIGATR
Property measured: Ki (nM)
Number in nM, nothing else.

Given the entry `CNCCCN1c2ccccc2CCc2ccccc21` , what Ki was observed with Muscarinic acetylcholine receptor M2 (Rattus norvegicus)?
600
